Measured TGI accompanies every entry in the list below.
test system: HOP-62 NSCLC; assay: NCI tumour cell line growth inhibition, 48 h
measurement type: TGI (µM)

[
  {
    "molecule": "CN(C)c1nc(=NCc2ccco2)ss1",
    "target of assay": "HOP-62 NSCLC",
    "measurement type": "TGI",
    "censoring qualifier": "=",
    "value observed": 62.8
  },
  {
    "molecule": "Cc1ccc(S(=O)(=O)[C@@H](Cl)[C@H]2N=C(Cl)NN=C2c2ccccc2)cc1",
    "target of assay": "HOP-62 NSCLC",
    "measurement type": "TGI",
    "censoring qualifier": "=",
    "value observed": 42.7
  },
  {
    "molecule": "O=C(C#Cc1ccccc1)N1c2ccccc2CC1c1c[nH]c2ccccc12 (stereo not drawn)",
    "target of assay": "HOP-62 NSCLC",
    "measurement type": "TGI",
    "censoring qualifier": "=",
    "value observed": 26.9
  },
  {
    "molecule": "[O-][N+]1(CC[N+]2([O-])CCCCC2)CCCCC1",
    "target of assay": "HOP-62 NSCLC",
    "measurement type": "TGI",
    "censoring qualifier": ">",
    "value observed": 100
  },
  {
    "molecule": "CCOc1ccc(N=NC2C(=O)N(C(=O)CC(=O)Nc3ccccc3)N=C2C)cc1 (stereo not drawn)",
    "target of assay": "HOP-62 NSCLC",
    "measurement type": "TGI",
    "censoring qualifier": ">",
    "value observed": 100
  },
  {
    "molecule": "CS(=O)(=O)c1nc(-c2cc3c(c(S(C)(=O)=O)n2)CCC3)cc2c1CCCC2",
    "target of assay": "HOP-62 NSCLC",
    "measurement type": "TGI",
    "censoring qualifier": "=",
    "value observed": 78.6
  },
  {
    "molecule": "O=[N+]([O-])c1ccc2oc(=Nc3ccccc3)c(Nc3ccccc3)nc2c1",
    "target of assay": "HOP-62 NSCLC",
    "measurement type": "TGI",
    "censoring qualifier": ">",
    "value observed": 100
  },
  {
    "molecule": "CC(C)(C)CC(C)(C)NC(=S)NO",
    "target of assay": "HOP-62 NSCLC",
    "measurement type": "TGI",
    "censoring qualifier": ">",
    "value observed": 100
  },
  {
    "molecule": "COc1cc(C2C(Cl)C(=O)N2NC(=O)c2ccc(NC(C)=O)cc2)ccc1O (stereo not drawn)",
    "target of assay": "HOP-62 NSCLC",
    "measurement type": "TGI",
    "censoring qualifier": ">",
    "value observed": 100
  },
  {
    "molecule": "CCOc1ccc2c(c1)C(=O)c1c-2n(CCCBr)c(=O)c2cc([N+](=O)[O-])ccc12",
    "target of assay": "HOP-62 NSCLC",
    "measurement type": "TGI",
    "censoring qualifier": ">",
    "value observed": 100
  },
  {
    "molecule": "CCN(Cc1cc(F)ccc1F)c1ccc(CO)c(Cl)c1",
    "target of assay": "HOP-62 NSCLC",
    "measurement type": "TGI",
    "censoring qualifier": "=",
    "value observed": 20.5
  },
  {
    "molecule": "Oc1ccccc1C1C=C(c2ccccc2)NC(N2CCCCC2)=C1c1nc2ccccc2[nH]1 (stereo not drawn)",
    "target of assay": "HOP-62 NSCLC",
    "measurement type": "TGI",
    "censoring qualifier": "=",
    "value observed": 27.4
  },
  {
    "molecule": "CCOC(=O)c1c(C)nc2c(c1-c1cn(-c3ccccc3)nc1-c1ccccc1)C(=O)c1ccccc1-2",
    "target of assay": "HOP-62 NSCLC",
    "measurement type": "TGI",
    "censoring qualifier": ">",
    "value observed": 100
  }
]

====

system: SK-MEL-5 melanoma; experiment: NCI tumour cell line growth inhibition, 48 h
Measured TGI accompanies every entry in the list below.
measurement type: TGI

[
  {
    "chemical structure": "COc1ccccc1N=Nc1c(O)c(S(=O)(=O)O)cc2cc(S(=O)(=O)O)ccc12",
    "target of assay": "SK-MEL-5 melanoma",
    "value observed": "> 100 µM"
  },
  {
    "chemical structure": "O=c1cc(-c2ccc(O)cc2)oc2cc(O[C@@H]3O[C@H](CO)[C@@H](O)[C@H](O)[C@H]3O)cc(O)c12",
    "target of assay": "SK-MEL-5 melanoma",
    "value observed": "> 100 µM"
  },
  {
    "chemical structure": "Cc1ccc(NC2=NCCO2)c2c1CCC2",
    "target of assay": "SK-MEL-5 melanoma",
    "value observed": "32.9 µM"
  },
  {
    "chemical structure": "Cn1c([C@H](C#N)C(=O)c2cc(O)ccc2[N+](=O)[O-])nc2ccccc21",
    "target of assay": "SK-MEL-5 melanoma",
    "value observed": "> 100 µM"
  },
  {
    "chemical structure": "O=S(=O)(O)c1cccc2cccc(N=Nc3c(O)ccc4ccccc34)c12",
    "target of assay": "SK-MEL-5 melanoma",
    "value observed": "> 100 µM"
  },
  {
    "chemical structure": "Cn1c(=O)c2[nH]c(SCCN3CCOCC3)nc2n(C)c1=S",
    "target of assay": "SK-MEL-5 melanoma",
    "value observed": "> 100 µM"
  },
  {
    "chemical structure": "CC(=O)NNc1nc(C)c(C(=O)NNC(=O)C(=O)Nc2cccc(C(C)=O)c2)s1",
    "target of assay": "SK-MEL-5 melanoma",
    "value observed": "> 100 µM"
  },
  {
    "chemical structure": "C[Si](C)(c1ccc(C(=O)O)cc1)c1ccc(C(=O)O)cc1",
    "target of assay": "SK-MEL-5 melanoma",
    "value observed": "> 100 µM"
  },
  {
    "chemical structure": "COC(=O)C12CC(NC(=O)c3csc([C@@H](C[C@H](C(C)C)N(C)C(=O)[C@@H](NC(=O)[C@H]4CCCCN4C)C4CC4)OC(C)=O)n3)(C1)C2",
    "target of assay": "SK-MEL-5 melanoma",
    "value observed": "0.449 µM"
  }
]

====

test system: EKVX NSCLC; test: NCI tumour cell line growth inhibition, 48 h
Measured TGI accompanies every entry in the list below.
measurement type: TGI

[
  {
    "compound": "Nc1ccc(Nc2cc(=O)[nH]c(=O)[nH]2)cc1",
    "value observed": "> 100 µM"
  },
  {
    "compound": "CCOC(=O)c1c(C)nc2c(c1-c1cn(-c3ccccc3)nc1-c1ccccc1)C(=O)c1ccccc1-2",
    "value observed": "> 100 µM"
  },
  {
    "compound": "CC1(C)C(CCO)CC1n1ccc(=O)[nH]c1=O (stereo not given)",
    "value observed": "> 100 µM"
  },
  {
    "compound": "O=C1C[C@@H]2[C@@H](CCC23CC3)N1",
    "value observed": "> 100 µM"
  },
  {
    "compound": "CC(C)(C)CC(C)(C)NC(=S)NO",
    "value observed": "> 100 µM"
  },
  {
    "compound": "O=S(=O)(c1ccc(-c2nnc(-c3ccc(F)cc3)o2)cc1)c1ccc(-c2nnc(-c3ccc(F)cc3)o2)cc1",
    "value observed": "> 100 µM"
  },
  {
    "compound": "COc1ccc(Nc2nc3ccccc3c3occc23)cc1",
    "value observed": "> 50 µM"
  },
  {
    "compound": "CCOC(=O)C(NC(=O)CC)(Nc1ccc(S(=O)(=O)Nc2onc(C)c2C)cc1)C(F)(F)F (stereo not given)",
    "value observed": "> 100 µM"
  },
  {
    "compound": "CCSCN(C)c1nc(N(C)C)nc(N(C)C)n1",
    "value observed": "> 100 µM"
  },
  {
    "compound": "C=C/C(C)=C/C[C@]1(C)[C@H](C)[C@@H](OC(=O)CCC)[C@H](O)[C@@]23C(=C[C@H](OC)C[C@@H]12)[C@@H](OC(=O)CCC)O[C@H]3OC(C)=O",
    "value observed": "2.61 µM"
  }
]

====

Measured TGI accompanies every entry in the list below.
system: DU-145 prostate; experiment: NCI tumour cell line growth inhibition, 48 h
measurement type: TGI

[
  {
    "compound": "Cc1ccc(S(=O)(=O)[C@@H](Cl)[C@H]2N=C(Cl)NN=C2c2ccccc2)cc1",
    "value observed": "70.9 µM"
  },
  {
    "compound": "C=C[C@@]1(O)CCCC[C@@H]1CC(Sc1ccccc1)Sc1ccccc1",
    "value observed": "32.2 µM"
  },
  {
    "compound": "Cc1nc2ccc(Br)cc2c(=O)n1-c1ccc(NC2OCC(O)C(O)C2O)cc1 (stereo unspecified)",
    "value observed": "> 100 µM"
  },
  {
    "compound": "Cn1c(=O)c2[nH]c(SCCN3CCOCC3)nc2n(C)c1=S",
    "value observed": "> 100 µM"
  },
  {
    "compound": "CC1(C)C(CCO)CC1n1ccc(=O)[nH]c1=O (stereo unspecified)",
    "value observed": "> 100 µM"
  },
  {
    "compound": "NS(=O)(=O)c1ccc(N2N=C3c4ccccc4CC3C2c2cccs2)cc1 (stereo unspecified)",
    "value observed": "37.7 µM"
  },
  {
    "compound": "C[Si](C)(c1ccc(C(=O)O)cc1)c1ccc(C(=O)O)cc1",
    "value observed": "> 100 µM"
  },
  {
    "compound": "CCCCCN(CCCCC)CC(O)c1cc(Cl)ccc1OC (stereo unspecified)",
    "value observed": "23.5 µM"
  },
  {
    "compound": "CC(=O)NC1=C(NCCCl)C(=O)c2ccccc2C1=O",
    "value observed": "> 100 µM"
  },
  {
    "compound": "CN1CN(c2ccccc2)C2(CCN(CCCCCCF)CC2)C1=O",
    "value observed": "> 100 µM"
  },
  {
    "compound": "O=C(/C=C/c1ccc(C(F)(F)F)cc1)Nc1ccc(C=C2c3ccccc3C(=O)c3ccccc32)cc1",
    "value observed": "> 100 µM"
  }
]
